Test system: BaF3
Run description: Antiproliferative activity against mouse BaF3 cells harboring TPR-MET D1228N mutant incubated for 24 hrs by CCK-8 assay
Format: functional, cell-based
Measurement context: BaF3, 24 h
Property label: IC50 (µM)
Give bare numbers, in µM.

Compound | Unit spec | Recorded result
COc1cc2nccc(Oc3ccc(NC(=O)C4(C(=O)Nc5ccc(F)cc5)CC4)cc3)c2cc1OC [CABOZANTINIB] | µM | 5.84

Attention now turns to another entry.
(Q) Output IC50 of `COc1cccc(-c2ccc(-c3nc4c5cccnc5c5ncccc5c4[nH]3)o2)c1`
(A) 0.4
